// provenance: the RNAGym collection of RNA variant scans (doi:10.7554/elife.80360)

Quick list: self-cleavage per entry.
B1: HDV Ribozyme (parent)
chain: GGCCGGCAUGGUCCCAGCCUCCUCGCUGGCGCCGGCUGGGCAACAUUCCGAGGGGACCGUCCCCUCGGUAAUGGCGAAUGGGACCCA

variants of: B1; test: self-cleavage, relative activity (ratio to wild type); higher = more cleavage; co-transcriptional

# SEQUENCE CHAIN, self-cleavage
records = [
    ("GGUCGGCAUGGUCCCAGCCUCCUCGCUGGCGCCGGCUGGGCACCAUUCCGAGGGGACCGUCCCCUCGGUAAUGGCGAAUGGGACCCA [C3U A43C]", 0.293),
    ("GGCCGGCAUGGUCCCAGCCUCCUCGCUGGCGCCGGCUCGGCAACAUUCCGAGGGGACGGUCCCCUCGGUAAUGGCGAAUGGGACCCA [G38C C58G]", 0.237),
    ("GGCCGGCAUGGUCCCAGCCUCCUCGCUGGCGCCGGCUGGGCAACAUUCCGAGGGGACCCUCCCCUCGGUAAUGCCGAAUGGGACCCA [G59C G74C]", 0.0678),
    ("GGCCGGUCUGGUCCCAGCCUCCUCGCUGGCGCCGGCUGGGCAACAUUCCGAGGGGACCGUCCCCUCGGUAAUGGCGAAUGGGACCCA [C7U A8C]", 0.917),
    ("GCCCGGCAUGGUCCCAGCCUCCUCGCUGGCGCCGGCUGGGCAACAUUCCGAGGGGACCGUCCCCACGGUAAUGGCGAAUGGGACCCA [G2C U65A]", 0),
    ("GGCCGGCAUGGUCCCAGCCUCCUCGCUGGCGCCGGCUGGGCAAUAUUCCGAGGGCACCGUCCCCUCGGUAAUGGCGAAUGGGACCCA [C44U G55C]", 0.882),
    ("GGCCGGCAUGGUCCCAGCCUCCUCGCUGGCGCCGGCUGGGCAACAUUACGAGGGGACCGUCCCCUCGGUAAUGGCGAAUGGUACCCA [C48A G82U]", 0.496),
    ("GGCCGGCAUGGUCCCAGCCUCCCCGCUGGCGCCGGCUGGGCAACAUUCCGAGGGGACCGUCCCCUCGGUAAUGGCGAAUGGGACCGA [U23C C86G]", 0.95),
    ("GGCCGGCAUGGUCCCAGCCUCCUCGCUGGCGCCUGAUGGGCAACAUUCCGAGGGGACCGUCCCCUCGGUAAUGGCGAAUGGGACCCA [G34U C36A]", 0.106),
    ("GGCCGGCAUGGUCCCAGCCUCCUCGCUGGCGCCGGCUGGACAACAUUCCGAGGGGACCGUCCGCUCGGUAAUGGCGAAUGGGACCCA [G40A C63G]", 0.46),
    ("GGCCGGCAUGGUCGCAGCCUCCUCGCUGGCACCGGCUGGGCAACAUUCCGAGGGGACCGUCCCCUCGGUAAUGGCGAAUGGGACCCA [C14G G31A]", 0.324),
    ("GGCCGGCAUGGUCCCAGCCUCCUCGCUGGCACCGGCUGGGCAACAUUCCGAGGGGACCGUCCCCUCGGUUAUGGCGAAUGGGACCCA [G31A A70U]", 0.101),
    ("GGCUGGCAUGGUCCCAGCCUCCUCGCUGGCGCCGGCUGGGCAACAUUCCGAGGGGACCGUCCCCUCUGUAAUGGCGAAUGGGACCCA [C4U G67U]", 0.855),
    ("GGCCGGCAUGGUCCCAGCCUCCUCGCUUGCGCCGGCUGGGCAACAUUCCGAGGGGGCCGUCCCCUCGGUAAUGGCGAAUGGGACCCA [G28U A56G]", 0),
    ("GGCCGGCAUGGUCCCAGCCUCCUCGCUGGCGCCGGCUGGGCAACAUUCCGAGUGGACAGUCCCCUCGGUAAUGGCGAAUGGGACCCA [G53U C58A]", 1.02),
    ("GGCCCGCAUGGUCCCAGCCUCCUCGCUGGCGCCGGCUGGGCAACAUUCCGAGGGGACCGUCCCCUCGGUAAUGGCGAGUGGGACCCA [G5C A78G]", 0),
    ("GGCCGGCAUGGUCCCAGCCUCCUCGCUGGUGCCGGCUGGGCAACAUUCCGAGGGGACCGUCCCGUCGGUAAUGGCGAAUGGGACCCA [C30U C64G]", 0.653),
    ("GGCCGGCAUGGUCCCAGCCCCCUCGCUGGCGCCGGCUGGGCAACAUUCCGAGGGGAACGUCCCCUCGGUAAUGGCGAAUGGGACCCA [U20C C57A]", 0.0449),
    ("GGCCGGCAUGGUCCCAGCCUCCACGCUGGCGCCGGCUGGGCAACAUUCCGAGGGGACCGUCCCCUCGGUAAUGGCGAAUGGGACCGA [U23A C86G]", 0.85),
    ("GGCCGGCAUGGUCCCAGACUCCUCGCUGGCGCCGGCUGGGCAACAUUCCGUGGGGACCGUCCCCUCGGUAAUGGCGAAUGGGACCCA [C18A A51U]", 0.0378),
    ("GGCCGGCAUGGUCCCAGCCUCCUCGCUGGCGCCGGCUGGGCAACAUUCCGAGGGGACCGUCCCCUCGGUAUUGGCAAAUGGGACCCA [A71U G76A]", 0.932),
    ("GGCCGGCAUGGUCCCAGCCUCCUCGCUGGCGCCGGCUGGGCAACAUUCCGAGUGGACCGUCCCCUCGGUAAUAGCGAAUGGGACCCA [G53U G73A]", 0.831),
    ("GGCCGGCAUGGUCCCAGCCUCCUCGCUGGCGCCGGCUGGGCAACAUUCCGAGGGGACCGUCCCCUCGGUAAUGGCGAAGGUGACCCA [U79G G81U]", 0.225),
    ("GGCCGGCAUGGUCCCAGCUUCCUCGCUGGCGCCGGCUGGGCAACAAUCCGAGGGGACCGUCCCCUCGGUAAUGGCGAAUGGGACCCA [C19U U46A]", 0.0875),
    ("GGCCGGCAUGGUCCCAGCCUCCUCGCUGGCGCCGGCUGGGCAACAUUCCGAGGGGACCGUGCCCUCGGUAAUGGCGAAUGGGACACA [C61G C85A]", 0.935),
]
